- Test system: OVCAR-5
- assay-comment: NCI tumour cell line growth inhibition, 48 h
Activity calls are given as the source filed them. Cut-off read from the data, not from the text of the source: active = GI50 up to about 1.1 µM and inactive = higher.
Please state which outcome applies, choosing from active, inactive

[
  {
    "compound": "CC(C)OP(=O)(OC(C)C)/C(I)=N/Nc1ccc([N+](=O)[O-])cc1",
    "assigned-class": "inactive"
  }
]

# outcome recorded in this test, key = Nc1nc2ccc(Sc3ccc4nc(N)[nH]c(=O)c4c3)cc2c(=O)[nH]1
inactive

Recorded test outcome, item C[C@@H](NC(=O)OC1C=CC2(CC1)C(=O)N(C)c1ccccc12)c1cccc2ccccc12 (stereo partly drawn)
inactive

What did this assay record as the result for O=C1Nc2ccccc2/C1=N/NC(=O)c1ccccc1O ?
inactive

For CCCN(CCC)c1c([N+](=O)[O-])cc(C(N)=O)cc1[N+](=O)[O-] , which call appears in the assay record?
inactive

Fill in: this test's call for c1c[nH]c(C23C4C5C6C4C2C6C53)n1 (stereo not drawn) is ___
inactive

Called result for O=[N+]([O-])c1ccc(C(Nc2ccccc2)P(c2ccccc2)c2ccccc2)cc1 (stereo not drawn)
inactive

Which outcome was assigned to O=C(c1cccs1)N(C(=O)N1CCC(c2ccccc2)CC1)c1ccccc1 in this test?
inactive

Write down the call the test reported for this compound. Item: CC1=NN(c2ccccc2)C(=O)C1/N=N/c1ccc([As](=O)(O)O)c(O)c1 (stereo not drawn)
inactive

Which result was noted for this compound in the test: Cc1cc(=O)[nH]c2cc(NC(=O)C(CCCNC(=N)N)NC(=O)OCc3ccccc3)ccc12 (stereo not drawn)
inactive

Field: outcome | Entry: O=C(CCN(CCO)CCO)Nc1ccc2c(c1)C(=O)c1ccc(NC(=O)CCN(CCO)CCO)cc1C2=O
inactive

Hi, do you know how Oc1c([Si](c2ccccc2)(c2ccccc2)c2ccccc2)cc2ccccc2c1-c1c(O)c([Si](c2ccccc2)(c2ccccc2)c2ccccc2)cc2ccccc12 came out in this test?
inactive

----------
- Tested on: CAKI-1
- assay-comment: NCI tumour cell line growth inhibition, 48 h
Calls of active or inactive are those of the source. Cut-off read from the data, not from the text of the source: active = GI50 up to about 1.1 µM and inactive = higher. Positions of bridges follow the written chain, without caps; N, C: chain ends. Residues, ends and D or L forms follow the SMILES beside them.
result-type: GI50

[
  {
    "compound": "COc1ccc2c(c1)CC1Cc3ccccc3CCN1C2 (stereo not given)",
    "tested-system": "CAKI-1",
    "GI50": "20.3 µM (inactive)"
  },
  {
    "compound": "COc1ccc2c(c1)[n+]([O-])c(-c1ccc([N+](=O)[O-])cc1)c(N)[n+]2[O-]",
    "tested-system": "CAKI-1",
    "GI50": "> 100 µM (inactive)"
  },
  {
    "compound": "O=c1[nH]c(=S)c2cc3c(=S)[nH]c(=O)n(CCO)c3nc2n1CCO",
    "tested-system": "CAKI-1",
    "GI50": "> 100 µM (inactive)"
  }
]

Output GI50 of Nc1nc(O)c2ncn(C3C=CC(CO)C3)c2n1 (stereo not given)
> 100 µM (inactive)

Supply measured GI50 of CCC(C)C1NC(=O)C(CC(C)C)NC(=O)C(C(C)C)NC(=O)C2CSSCC(NC1=O)C(=O)N2 (stereo not given) (cyclo(CCVLI); disulfide 1-2; configuration not given here) in your reply.
1.74 µM (inactive)

Please report the measured GI50 for COc1cc2c(cc1OC)-c1c(oc3cc(OC4OC(CO)C(O)C(O)C4O)c(OC)cc3c1=O)C(O)O2 (stereo not given)
> 100 µM (inactive)

Item O=C1CCN2C(=O)CCN12 : provide GI50
> 100 µM (inactive)

# return recorded GI50 for entry O=C1OC(C2Cc3ccccc3C2=O)c2ccccc21 (stereo not given)
> 100 µM (inactive)

Answer with the recorded GI50 for the compound listed here: CC1=Nn2c(nc3sc4c(c3c2=O)CCCC4)SC1
> 100 µM (inactive)

Identify GI50 associated with the compound Cc1ccc(S(N)(C(=O)Nc2cccc3ccccc23)[N+](=O)[O-])cc1 (stereo not given)
> 100 µM (inactive)
